- run-description: Cytotoxicity in human CEM cells assessed as reduction in cell proliferation
- Type: cell-based
- run-conditions: CEM cells (CCRF-CEM)
Each record gets a class by CC50: 0 = under 30 µM, 1 = from 30 µM up to 40 µM, 2 = 40 µM and over

[
  {
    "compound": "CCCCCCCCCCCCCCCCCCP(=O)(OCc1ccc(OC(=O)OCCCC)cc1)OP(=O)(O)OP(=O)(O)OC[C@@H]1C=C[C@H](n2cc(C)c(=O)[nH]c2=O)O1.N.N (stereo not given in full)",
    "discrete-label": 0
  },
  {
    "compound": "CCCCCCCCCCCCP(=O)(OCc1ccc(OC(=O)CCCCCCCCCCC)cc1)OP(=O)(O)OP(=O)(O)OC[C@@H]1C=C[C@H](n2cc(C)c(=O)[nH]c2=O)O1.N.N (stereo not given in full)",
    "discrete-label": 1
  },
  {
    "compound": "CCCCCCCCCCCCP(=O)(OCc1ccc(OC(=O)OC)cc1)OP(=O)(O)OP(=O)(O)OC[C@@H]1C=C[C@H](n2cc(C)c(=O)[nH]c2=O)O1.N.N (stereo not given in full)",
    "discrete-label": 2
  },
  {
    "compound": "Cc1cn([C@H]2C=C[C@@H](CO)O2)c(=O)[nH]c1=O [STAVUDINE]",
    "discrete-label": 2
  },
  {
    "compound": "CCCCCCCCCCCCP(=O)(OCc1ccc(OC(=O)CCCC)cc1)OP(=O)(O)OP(=O)(O)OC[C@@H]1C=C[C@H](n2cc(C)c(=O)[nH]c2=O)O1.N.N (stereo not given in full)",
    "discrete-label": 2
  },
  {
    "compound": "CCCCCCCCCCCCP(=O)(O)OP(=O)(O)OP(=O)(O)OC[C@@H]1C=C[C@H](n2cc(C)c(=O)[nH]c2=O)O1.N.N.N",
    "discrete-label": 2
  },
  {
    "compound": "CCCCCCCCCCCCCCCCCCP(=O)(O)OP(=O)(O)OP(=O)(O)OC[C@@H]1C=C[C@H](n2cc(C)c(=O)[nH]c2=O)O1.N.N.N",
    "discrete-label": 0
  },
  {
    "compound": "CCCCCCCCCCCCCCCCCCP(=O)(OCc1ccc(OC(=O)CCCC)cc1)OP(=O)(O)OP(=O)(O)OC[C@@H]1C=C[C@H](n2cc(C)c(=O)[nH]c2=O)O1.N.N (stereo not given in full)",
    "discrete-label": 0
  },
  {
    "compound": "CCCCCCCCCCCCP(=O)(OCCC#N)OP(=O)(O)OP(=O)(O)OC[C@@H]1C=C[C@H](n2cc(C)c(=O)[nH]c2=O)O1.N.N (stereo not given in full)",
    "discrete-label": 2
  },
  {
    "compound": "CCCCCCCCCCCCP(=O)(OCc1ccc(OC(=O)OCCCC)cc1)OP(=O)(O)OP(=O)(O)OC[C@@H]1C=C[C@H](n2cc(C)c(=O)[nH]c2=O)O1.N.N (stereo not given in full)",
    "discrete-label": 1
  },
  {
    "compound": "CCCCCCCCCCCCCCCCCCP(=O)(OCCC#N)OP(=O)(O)OP(=O)(O)OC[C@@H]1C=C[C@H](n2cc(C)c(=O)[nH]c2=O)O1.N.N (stereo not given in full)",
    "discrete-label": 1
  },
  {
    "compound": "CCCCCCCCCCCCCCP(=O)(OCc1ccc(OC(=O)OCCCC)cc1)OP(=O)(O)OP(=O)(O)OC[C@@H]1C=C[C@H](n2cc(C)c(=O)[nH]c2=O)O1.N.N (stereo not given in full)",
    "discrete-label": 1
  },
  {
    "compound": "CCCCCCCCCCCCP(=O)(OCc1ccc(OC(C)=O)cc1)OP(=O)(O)OP(=O)(O)OC[C@@H]1C=C[C@H](n2cc(C)c(=O)[nH]c2=O)O1.N.N (stereo not given in full)",
    "discrete-label": 2
  },
  {
    "compound": "CCCCCCCCCCCCCCP(=O)(OCc1ccc(OC(=O)CCCC)cc1)OP(=O)(O)OP(=O)(O)OC[C@@H]1C=C[C@H](n2cc(C)c(=O)[nH]c2=O)O1.N.N (stereo not given in full)",
    "discrete-label": 2
  }
]

###

- System: Human immunodeficiency virus 2
- run-description: Antiviral activity against HIV2 ROD infected in human TK-deficient CEM/TK- T-cells assessed as reduction in virus-induced cytopathogenicity by measuring syncytia cell formation incubated for 4 to 5 days by microscopy
- run-conditions: Human immunodeficiency virus 2, ISOLATE ROD
experimental-readout: EC50

[
  {
    "molecule": "CCCCCCCCCCCCCCCCCCP(=O)(OCc1ccc(OC(=O)CCCC)cc1)OP(=O)(O)OP(=O)(O)OC[C@@H]1C=C[C@H](n2cc(C)c(=O)[nH]c2=O)O1.N.N (some centres undefined)",
    "target-or-system": "Human immunodeficiency virus 2",
    "experimental-readout": "EC50",
    "meas-value": "42 nM"
  },
  {
    "molecule": "CCCCCCCCCCCCP(=O)(OCc1ccc(OC(C)=O)cc1)OP(=O)(O)OP(=O)(O)OC[C@@H]1C=C[C@H](n2cc(C)c(=O)[nH]c2=O)O1.N.N (some centres undefined)",
    "target-or-system": "Human immunodeficiency virus 2",
    "experimental-readout": "EC50",
    "meas-value": "26300 nM"
  },
  {
    "molecule": "CCCCCCCCCCCCP(=O)(OCc1ccc(OC(=O)OCCCCCCCCCCC)cc1)OP(=O)(O)OP(=O)(O)OC[C@@H]1C=C[C@H](n2cc(C)c(=O)[nH]c2=O)O1.N.N (some centres undefined)",
    "target-or-system": "Human immunodeficiency virus 2",
    "experimental-readout": "EC50",
    "meas-value": "320 nM"
  },
  {
    "molecule": "CCCCCCCCCCCCP(=O)(OCc1ccc(OC(=O)OC)cc1)OP(=O)(O)OP(=O)(O)OC[C@@H]1C=C[C@H](n2cc(C)c(=O)[nH]c2=O)O1.N.N (some centres undefined)",
    "target-or-system": "Human immunodeficiency virus 2",
    "experimental-readout": "EC50",
    "meas-value": "36800 nM"
  },
  {
    "molecule": "CCCCCCCCCCCCCCCCCCP(=O)(O)OP(=O)(O)OP(=O)(O)OC[C@@H]1C=C[C@H](n2cc(C)c(=O)[nH]c2=O)O1.N.N.N",
    "target-or-system": "Human immunodeficiency virus 2",
    "experimental-readout": "EC50",
    "meas-value": "1580 nM"
  },
  {
    "molecule": "CCCCCCCCCCCCP(=O)(O)OP(=O)(O)OP(=O)(O)OC[C@@H]1C=C[C@H](n2cc(C)c(=O)[nH]c2=O)O1.N.N.N",
    "target-or-system": "Human immunodeficiency virus 2",
    "experimental-readout": "EC50",
    "meas-value": "41100 nM"
  },
  {
    "molecule": "CCCCCCCCCCCCP(=O)(OCc1ccc(OC(=O)CCCCCCCCCCC)cc1)OP(=O)(O)OP(=O)(O)OC[C@@H]1C=C[C@H](n2cc(C)c(=O)[nH]c2=O)O1.N.N (some centres undefined)",
    "target-or-system": "Human immunodeficiency virus 2",
    "experimental-readout": "EC50",
    "meas-value": "66 nM"
  },
  {
    "molecule": "CCCCCCCCCCCCCCCCCCP(=O)(OCCC#N)OP(=O)(O)OP(=O)(O)OC[C@@H]1C=C[C@H](n2cc(C)c(=O)[nH]c2=O)O1.N.N (some centres undefined)",
    "target-or-system": "Human immunodeficiency virus 2",
    "experimental-readout": "EC50",
    "meas-value": "140 nM"
  },
  {
    "molecule": "CCCCCCCCCCCCP(=O)(OCc1ccc(OC(=O)CCCC)cc1)OP(=O)(O)OP(=O)(O)OC[C@@H]1C=C[C@H](n2cc(C)c(=O)[nH]c2=O)O1.N.N (some centres undefined)",
    "target-or-system": "Human immunodeficiency virus 2",
    "experimental-readout": "EC50",
    "meas-value": "3430 nM"
  },
  {
    "molecule": "CCCCCCCCCCCCCCCCCCP(=O)(OCc1ccc(OC(=O)OCCCC)cc1)OP(=O)(O)OP(=O)(O)OC[C@@H]1C=C[C@H](n2cc(C)c(=O)[nH]c2=O)O1.N.N (some centres undefined)",
    "target-or-system": "Human immunodeficiency virus 2",
    "experimental-readout": "EC50",
    "meas-value": "32 nM"
  },
  {
    "molecule": "CCCCCCCCCCCCP(=O)(OCCC#N)OP(=O)(O)OP(=O)(O)OC[C@@H]1C=C[C@H](n2cc(C)c(=O)[nH]c2=O)O1.N.N (some centres undefined)",
    "target-or-system": "Human immunodeficiency virus 2",
    "experimental-readout": "EC50",
    "meas-value": "20900 nM"
  },
  {
    "molecule": "CCCCCCCCCCCCCCP(=O)(OCc1ccc(OC(=O)CCCC)cc1)OP(=O)(O)OP(=O)(O)OC[C@@H]1C=C[C@H](n2cc(C)c(=O)[nH]c2=O)O1.N.N (some centres undefined)",
    "target-or-system": "Human immunodeficiency virus 2",
    "experimental-readout": "EC50",
    "meas-value": "530 nM"
  },
  {
    "molecule": "CCCCCCCCCCCCP(=O)(OCc1ccc(OC(=O)OCCCC)cc1)OP(=O)(O)OP(=O)(O)OC[C@@H]1C=C[C@H](n2cc(C)c(=O)[nH]c2=O)O1.N.N (some centres undefined)",
    "target-or-system": "Human immunodeficiency virus 2",
    "experimental-readout": "EC50",
    "meas-value": "9900 nM"
  },
  {
    "molecule": "CCCCCCCCCCCCCCP(=O)(OCc1ccc(OC(=O)OCCCC)cc1)OP(=O)(O)OP(=O)(O)OC[C@@H]1C=C[C@H](n2cc(C)c(=O)[nH]c2=O)O1.N.N (some centres undefined)",
    "target-or-system": "Human immunodeficiency virus 2",
    "experimental-readout": "EC50",
    "meas-value": "1760 nM"
  }
]
